Source listed as patent US12605397B2.

- Tested on: HeLa cells
- measurement protocol: Survival assay (MTT), HeLa
- condition details: Homo sapiens, HeLa, 72 h

>  <compound>
Nc1nc(=O)n([C@H]2C[C@H](O)[C@@H](CO)O2)cc1C=O

>  <IC50>
0.76 µM

$$$$
>  <compound>
Nc1nc(=O)n([C@H]2C[C@H](O)[C@@H](CO)O2)cc1C(=O)O [2d5caC, 5-carboxy-2′-deoxycytidine, reference compound]

>  <IC50>
> 25 µM

$$$$
>  <compound>
Nc1nc(=O)n([C@H]2C[C@H](O)[C@@H](CO)O2)cc1CO [2d5hmC, 5-hydroxymethyl-2′-deoxycytidine]

>  <IC50>
> 25 µM

$$$$
>  <compound>
Cn1nnc2c(C(N)=O)ncn2c1=O [Temozolomide, reference compound]

>  <IC50>
> 25 µM

$$$$

---

- Test system: HCT-116 cells
- measurement protocol: Survival assay (MTT), HCT-116
- Type: cell-based, human
- condition details: Homo sapiens, HCT-116, HCT-116; Tables 6 and 7, unit inferred
endpoint: IC50

>  <compound>
Nc1nc(=O)n([C@H]2C[C@H](O)[C@@H](CO)O2)cc1CO [2d5hmC, 5-hydroxymethyl-2′-deoxycytidine]

>  <endpoint result>
≥ 25 µM

$$$$
>  <compound>
Nc1nc(=O)n([C@H]2C[C@H](O)[C@@H](CO)O2)cc1C=O [2d5fC, 5-formyl-2′-deoxycytidine]

>  <endpoint result>
≥ 25 µM

$$$$

---

- Tested on: U2OS cells
- measurement protocol: Survival assay (MTT), U2OS
- Type: cell-based, human
- condition details: Homo sapiens, Bone Osteoscarcoma, 72 hours, MTT

>  <compound>
Nc1nc(=O)n([C@H]2C[C@H](O)[C@@H](CO)O2)cc1CO [2d5hmC, 5-hydroxymethyl-2′-deoxycytidine]

>  <target system>
U2OS cells

>  <IC50>
> 25 µM

$$$$
>  <compound>
Cn1nnc2c(C(N)=O)ncn2c1=O [Temozolomide, reference compound]

>  <target system>
U2OS cells

>  <IC50>
> 25 µM

$$$$
>  <compound>
Nc1nc(=O)n([C@H]2C[C@H](O)[C@@H](CO)O2)cc1C=O

>  <target system>
U2OS cells

>  <IC50>
8.69 µM

$$$$
>  <compound>
Nc1nc(=O)n([C@H]2C[C@H](O)[C@@H](CO)O2)cc1C(=O)O [2d5caC, 5-carboxy-2′-deoxycytidine, reference compound]

>  <target system>
U2OS cells

>  <IC50>
> 25 µM

$$$$

---

Quick list: number of Glioma, Grade IV cell lines killed per entry.
- System: Glioma, Grade IV cell lines
- measurement protocol: Survival assay, panel of 12 patient derived Glioma, Grade IV cell lines
- Assay type: cell-based, human
- condition details: of 12 cell lines of Table 2
- Excerpt: […]
endpoint: number of Glioma, Grade IV cell lines killed

>  <molecule>
O=c1[nH]cc(F)c(=O)[nH]1 [5fU, 5-flurouracil, reference compound]

>  <endpoint result>
11 of 12

$$$$
>  <molecule>
Cn1nnc2c(C(N)=O)ncn2c1=O [Temozolomide, reference compound]

>  <endpoint result>
5 of 12

$$$$
>  <molecule>
Nc1nc(=O)n([C@H]2C[C@H](O)[C@@H](CO)O2)cc1C=O [2d5fC, 5-formyl-2′-deoxycytidine]

>  <endpoint result>
5 of 12

$$$$
>  <molecule>
Nc1nc(=O)n([C@H]2C[C@H](O)[C@@H](CO)O2)cc1CO [2d5hmC, 5-hydroxymethyl-2′-deoxycytidine]

>  <endpoint result>
6 of 12

$$$$
